Ki, cloned human NE transporter (hNET) (Homo sapiens): measured values
OBSERVABLE: Ki (µM)

COMPOUND | SYSTEM TESTED | ASSAY VALUE
Cc1cccc2c1Oc1ccccc1C1(O)CCN(C)CC21 (single isomer, unassigned; (-)) [(−)-beloxepin] | cloned human NE transporter (hNET) (Homo sapiens) | 0.39
Cc1cccc2c1Oc1ccccc1C1(O)CCN(C)CC21 (single isomer, unassigned; (+)) [(+)-beloxepin] | cloned human NE transporter (hNET) (Homo sapiens) | 2.92
Cc1cccc2c1Oc1ccccc1C1(O)CCN(C)CC21 (racemic) [(±)-beloxepin] | cloned human NE transporter (hNET) (Homo sapiens) | 0.7

###

# SYSTEM TESTED: cloned human 5HT2B receptor (Homo sapiens, UniProt P41595)
# Sequence (P41595 whole entry): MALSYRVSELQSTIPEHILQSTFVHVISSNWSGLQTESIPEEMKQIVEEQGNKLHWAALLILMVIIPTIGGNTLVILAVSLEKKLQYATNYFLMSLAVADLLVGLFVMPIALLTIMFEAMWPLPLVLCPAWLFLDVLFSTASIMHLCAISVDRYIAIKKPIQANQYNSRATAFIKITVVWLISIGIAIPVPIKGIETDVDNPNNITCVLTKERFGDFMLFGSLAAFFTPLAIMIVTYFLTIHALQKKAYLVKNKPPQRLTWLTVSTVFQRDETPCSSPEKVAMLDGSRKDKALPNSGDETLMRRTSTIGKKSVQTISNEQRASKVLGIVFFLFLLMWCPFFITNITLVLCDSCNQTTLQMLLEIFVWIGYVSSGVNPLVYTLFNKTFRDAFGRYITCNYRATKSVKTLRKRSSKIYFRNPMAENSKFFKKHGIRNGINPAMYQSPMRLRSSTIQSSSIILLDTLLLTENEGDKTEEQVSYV
pKi: −log10 of the molar value.

MOLECULE | RELATION OPERATOR | pKi
Cc1cccc2c1Oc1ccccc1C1(O)CCN(C)CC21 (single isomer, unassigned; (+)) [(+)-beloxepin] | = | 6.77
Cc1cccc2c1Oc1ccccc1C1(O)CCN(C)CC21 (single isomer, unassigned; (-)) [(−)-beloxepin] | < | 5.00
Cc1cccc2c1Oc1ccccc1C1(O)CCN(C)CC21 (racemic) [(±)-beloxepin] | = | 6.00

###

# SYSTEM TESTED: human recombinant CYP2D6 (Homo sapiens)
# Construct: purchased BD Bioscience
# Sequence (P10635 whole entry): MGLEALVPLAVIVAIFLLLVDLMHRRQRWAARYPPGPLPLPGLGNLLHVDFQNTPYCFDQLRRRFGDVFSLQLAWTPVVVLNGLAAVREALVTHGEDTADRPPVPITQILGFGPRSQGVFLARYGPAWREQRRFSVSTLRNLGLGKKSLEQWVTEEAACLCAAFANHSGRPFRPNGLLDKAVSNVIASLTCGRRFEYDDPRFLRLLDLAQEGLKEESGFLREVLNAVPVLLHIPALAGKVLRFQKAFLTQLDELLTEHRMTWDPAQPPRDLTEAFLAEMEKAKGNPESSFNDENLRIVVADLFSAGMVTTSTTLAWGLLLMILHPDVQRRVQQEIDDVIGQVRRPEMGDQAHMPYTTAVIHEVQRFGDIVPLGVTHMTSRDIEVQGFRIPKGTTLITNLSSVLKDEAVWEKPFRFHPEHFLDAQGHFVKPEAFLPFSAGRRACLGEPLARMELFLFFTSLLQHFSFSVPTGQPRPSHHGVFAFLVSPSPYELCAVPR
# ASSAY DETAILS: CYP2D6 inhibition, MAMC substrate
# Format: in vitro ADME
# CONDITION PARAMETERS: microsomes with human recombinant CYP2D6; read-out: CYP2D6 Isoenzyme IC50

MOLECULE | SYSTEM TESTED | IC50 (nM)
Cc1cccc2c1Oc1ccccc1C1(O)CCN(C)CC21 (single isomer, unassigned; (+)) [(+)-beloxepin] | human recombinant CYP2D6 (Homo sapiens) | 236
